- TARGET: T1, human complement protein C5 (human, UniProt P01031 19-1676)
- T1 construct: Native C5 is a two-chain protein made from one precursor; also called hC5; human C5
- ASSAY OVERVIEW: SPR (Biacore)
# Lookup of reported kon keyed by entry
The answer is to be given in M⁻¹ s⁻¹; state only the numeric part.

// worked examples, kon included
INSERT INTO measurements (binder, unit_name, observed) VALUES
  ('LCP0115 (VHH, llama anti-C5 VHH, tested as VHH-His fusion; not shown: His-tag) VHH: EVQLVESGGGLVQAGGSLRLSCAASGRTFSGILSPYAVGWFRQAPGKGREFVSTITSGGSAIYTDSVKGRFTLSRDNAKDTVYLQMNSLKPEDTAVYYCAVRTRRYGSNLGEVPQENEYGYWGQGTQVTVSS', 'M⁻¹ s⁻¹', 113000),
  ('LCP0302 (VHH, llama anti-C5 VHH, tested as VHH-His fusion; not shown: His-tag) VHH: EVQLVESGGGLVQAGGSLRLSCAASGRTFSGILSAYAVGWFRQAPGKEREFVSTITSGGSTLSADSVKGRFTLSRDNAKDTVYLQMNSLKPEDTAVYYCAVRTWPYGSNRGEVPTENEYGHWGQGTQVTVSS', 'M⁻¹ s⁻¹', 114000),
  ('LCP0146 (VHH, llama anti-C5 VHH, tested as VHH-His fusion; not shown: His-tag) VHH: EVQLVESGGGLVQAGGSLRLSCAASGRAFSDYAMAWFRQAPGKEREFVAGIGWSGGDTLYADSVRGRFTNSKDNAKNRMSLQMNSLKPEDTAVYYCAARQGQYIYSSMRSDSYDYWGQGTQVTVSS', 'M⁻¹ s⁻¹', '2.24e+06');

Please examine the following record next.
Name the recorded kon of the binder listed here: LCP0123 (VHH, llama anti-C5 VHH, tested as VHH-His fusion; not shown: His-tag) VHH: EVQLVESGGGLVQAGGSLTLSCAMSGGTRPFEDYVMAWFRQATGKEREFVATITWMGETTYYKDSVNGRFAISRDNAENTVALQMNSLEPEDTAVYFCAAHSRSSFSTSGGRYNPRPTEYDYWGQGTQVTVSS 108000
